Tested on: VEGF secretion in human macrophages
Test: Effect on VEGF secretion in TNF-α-stimulated human macrophages in vitro
Assay type: cell-based
Settings: Macrophage, TNF-α stimulation, FIG. 7
Text: FIGS. 1A-B illustrate the effect of cicaprost on IL-8 secretion on in vitro human macrophages. The human macrophages were simulated either with lipopolysaccharide (LPS), illustrated in FIG. 1A, or with TNF-α, illustrated in FIG. 1B. […]
propertyMeasured: EC50

Q) What does the data say about its EC50? Entry: CCC#CC[C@H](C)[C@H](O)C#C[C@@H]1[C@H]2C/C(=C/COCC(=O)O)C[C@H]2C[C@H]1O
A) 2.3 nM
